abundance fitness reference
B1: Homeobox expressed in ES cells 1, residues 110 to 165; numbered along this chain, Q9UBX0 (parent)
chain: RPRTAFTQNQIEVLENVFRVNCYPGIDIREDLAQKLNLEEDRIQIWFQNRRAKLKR

Variants of: B1
Experiment: abundance fitness (aPCA) (normalised: wild type 0, dead -1); higher = more abundant; growth selection in yeast, the domain comes from the species named
Conditions: Homo sapiens
Just the number.

Study these solved cases before continuing.
1. V20L | -0.186
2. E12D | 0.28
3. Y23C | 0.05
4. N9M | 0.381
5. D31A | -0.106

Please find the next variant below.
What does the data say about its abundance fitness? Entry: `I11G`
-0.891
